Just for reference, patent US12071434B2 is where these values come from.

Biological target: human orexin type 2 receptor (Homo sapiens)
Construct: expressed in transfected cells
Assay: Measurement of orexin type 2 receptor agonist activity (calcium fluorescence, Fluo-4 AM, FDSS) in CHO cells forcibly expressing human OX2 receptor
Type: cell-based
Conditions: test compound 3 μM, DMSO = 0%, orexin A (human) 10 nM = 100%
Excerpt: To obtain a cell clone stably expressing human orexin type 2 receptor, human orexin type 2 receptor cDNA was inserted into pcDNA3.1(+) plasmid vector (Invitrogen), and a plasmid DNA for expression of human orexin type 2 receptor (pcDNA3.1(+)/hOX2R) was cloned. The plasmid DNA was introduced into CHO-dhfr cell by an electroporation method, and human orexin type 2 receptor expressing clone cells were obtained by limiting dilution method by using G418 drug resistance as a selection marker. […]
Below, each entry is listed alongside its reported 0X2R agonist activity (3 μM, %).
Report only the number, with the unit % understood.

Enquiry: State recorded 0X2R agonist activity (3 μM, %) with human orexin type 2 receptor (Homo sapiens), entry COC1(C(=O)N[C@H]2CCc3ncn(C(C)C)c(=O)c3[C@H]2Cc2cccc(-c3ccccc3)c2)CC1 (racemic) [Example 63] , no comment.
Return: 92

Enquiry: Name the recorded 0X2R agonist activity (3 μM, %) of CC(C)c1ccc2n(c1=O)[C@@H](Cc1cccc(-c3cccc(F)c3)c1F)[C@@H](NC(=O)C(=O)N(C)C)CC2 (racemic) [Example 40] , assay system human orexin type 2 receptor (Homo sapiens).
Return: 93

Enquiry: Find the measured 0X2R agonist activity (3 μM, %) of CN1CC[C@@H]2CC[C@H](NS(C)(=O)=O)[C@H](Cc3cccc(-c4ccccc4)c3)N2C1=O (racemic) [Example 62] with human orexin type 2 receptor (Homo sapiens) as test system.
Return: 92

Enquiry: Look up human orexin type 2 receptor (Homo sapiens) data: 0X2R agonist activity (3 μM, %) of CCn1ccc2c(c1=O)[C@@H](Cc1cccc(-c3cccc4c3OCC4)c1)[C@@H](NS(C)(=O)=O)CC2 (racemic) [Example 126] , then report it.
Return: 103

Enquiry: Give the observed 0X2R agonist activity (3 μM, %) of CC(C)n1cnc2c(c1=O)C(Cc1cccc(-c3ccccc3)c1)C(NS(C)(=O)=O)C(F)C2 (racemic) [Example 173] for human orexin type 2 receptor (Homo sapiens).
Return: 91

----------
Biological target: human orexin type 2 receptor (Homo sapiens)
Construct: expressed in transfected cells
Assay: Measurement of orexin type 2 receptor agonist activity (calcium fluorescence, Fluo-4 AM, FDSS) in CHO cells forcibly expressing human OX2 receptor
Assay type: cell-based
Details: test compound 3 μM, DMSO = 0%, orexin A (human) 10 nM = 100%
# 0X2R agonist activity (3 μM, %) per entry
Response body: numeric value in %, unit text excluded.

Here are 5 compounds together with their reported answers.
{"COMPOUND": "CC(C)n1cnc2c(c1=O)[C@@H](Cc1csc(-c3ccccc3)n1)[C@@H](NS(=O)(=O)C1CC1)CC2 (relative stereo)", "PARAMETER_MEASURED": "0X2R agonist activity (3 μM, %)", "REPORTED_MEASUREMENT": 91}
{"COMPOUND": "CCS(=O)(=O)N[C@H]1CCc2ncn(C(C)C)c(=O)c2[C@H]1Cc1cccc(-c2cc(C)cc(C)n2)c1 (racemic)", "PARAMETER_MEASURED": "0X2R agonist activity (3 μM, %)", "REPORTED_MEASUREMENT": 100}
{"COMPOUND": "CCc1ccc2n(c1=O)[C@@H](Cc1cccc(C3CC3)c1)[C@@H](NS(C)(=O)=O)CC2 (racemic)", "PARAMETER_MEASURED": "0X2R agonist activity (3 μM, %)", "REPORTED_MEASUREMENT": 89}
{"COMPOUND": "CC(C)n1cnc2c(c1=O)[C@@H](Cc1cccc(-c3cc(F)cc(F)c3)c1)[C@@H](NS(C)(=O)=O)CC2 (racemic)", "PARAMETER_MEASURED": "0X2R agonist activity (3 μM, %)", "REPORTED_MEASUREMENT": 105}
{"COMPOUND": "Cc1cc(F)c2n(c1=O)[C@@H](Cc1cccc(-c3ccccc3)c1)[C@@H](NS(C)(=O)=O)CC2 (racemic)", "PARAMETER_MEASURED": "0X2R agonist activity (3 μM, %)", "REPORTED_MEASUREMENT": 101}

Continue with the compound presented below.
Enquiry: For the compound CC(C)N1CNC2=C(C1=O)[C@@H](Cc1csc(-c3ccccc3F)n1)[C@@H](NS(=O)(=O)C1(F)CC1)CC2 (relative stereo) , report 0X2R agonist activity (3 μM, %).
Return: 99

----------
Target: human orexin type 2 receptor (Homo sapiens)
Construct: expressed in transfected cells
Sequence (O43614 1-444): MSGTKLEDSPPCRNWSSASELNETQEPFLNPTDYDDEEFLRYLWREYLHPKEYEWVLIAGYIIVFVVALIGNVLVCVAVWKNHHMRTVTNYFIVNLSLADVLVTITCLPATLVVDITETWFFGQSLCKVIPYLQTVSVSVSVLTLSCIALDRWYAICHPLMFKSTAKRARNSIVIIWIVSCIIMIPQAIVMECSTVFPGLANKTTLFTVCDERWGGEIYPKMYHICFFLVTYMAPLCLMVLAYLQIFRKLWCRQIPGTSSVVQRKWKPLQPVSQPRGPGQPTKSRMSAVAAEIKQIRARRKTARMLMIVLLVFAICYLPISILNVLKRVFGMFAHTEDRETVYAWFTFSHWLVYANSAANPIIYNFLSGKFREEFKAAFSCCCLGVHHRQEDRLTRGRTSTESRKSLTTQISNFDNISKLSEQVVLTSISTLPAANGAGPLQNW
Assay: Measurement of orexin type 2 receptor agonist activity (calcium fluorescence, Fluo-4 AM, FDSS) in CHO cells forcibly expressing human OX2 receptor
Format: cell-based
Conditions: test compound 3 μM, DMSO = 0%, orexin A (human) 10 nM = 100%
PARAMETER_MEASURED: 0X2R agonist activity (3 μM, %)
A complete answer gives the number followed by the unit.

{"MOLECULE": "CS(=O)(=O)N[C@H]1CCc2c(Cl)nc(Cl)c(=O)n2[C@H]1Cc1cccc(-c2ccccc2)c1 (racemic) [Example 61]", "0X2R agonist activity (3 μM, %)": "51%"}

Enquiry: Report 0X2R agonist activity (3 μM, %) for [2H]C([2H])([2H])C([2H])([2H])n1ccc2c(c1=O)C(Cc1cccc(-c3cccc(F)c3F)c1)C(NS(C)(=O)=O)CC2 (racemic) [Example 147]
Return: 100%

Enquiry: Assign 0X2R agonist activity (3 μM, %) to the following record: CC(C)n1cnc2c(c1=O)[C@@H](Cc1cccc(-c3cccc(F)c3)c1F)[C@@H](NS(=O)(=O)C1(F)CC1)CC2 [Example 181]
Return: 91%

----------
Biological target: human orexin type 2 receptor (Homo sapiens)
Construct: expressed in transfected cells
Test: Measurement of orexin type 2 receptor agonist activity (calcium fluorescence, Fluo-4 AM, FDSS) in CHO cells forcibly expressing human OX2 receptor
Type: cell-based
Conditions: test compound 3 μM, DMSO = 0%, orexin A (human) 10 nM = 100%
In this section we review reported 0X2R agonist activity (3 μM, %) values for a set of compounds.
Value expressed in %; do not type the unit.

{"COMPOUND": "CCn1c(C)nc2c(c1=O)C(Cc1cccc(-c3cc(F)cc(F)c3)c1)C(NS(C)(=O)=O)CC2 (racemic)", "SYSTEM_NAME": "human orexin type 2 receptor (Homo sapiens)", "READOUT_UNITS": "%", "REPORTED_MEASUREMENT": 92}
{"COMPOUND": "CCn1cc2n(c1=O)[C@@H](Cc1cccc(-c3ccccc3)c1F)[C@@H](NS(C)(=O)=O)CC2 (racemic)", "SYSTEM_NAME": "human orexin type 2 receptor (Homo sapiens)", "READOUT_UNITS": "%", "REPORTED_MEASUREMENT": 91}
{"COMPOUND": "CCc1ccc2n(c1=O)[C@@H](Cc1cccc(-c3cc(F)cc(F)c3)c1F)[C@@H](NS(C)(=O)=O)CC2 (racemic)", "SYSTEM_NAME": "human orexin type 2 receptor (Homo sapiens)", "READOUT_UNITS": "%", "REPORTED_MEASUREMENT": 104}

Now for another entry.
Enquiry: For the compound CS(=O)(=O)N[C@H]1CCc2ccc(C3CC3)c(=O)n2[C@H]1Cc1cccc(-c2ccccc2)c1 (racemic) , report 0X2R agonist activity (3 μM, %).
Return: 106

----------
Target: human orexin type 2 receptor (Homo sapiens, UniProt O43614)
Construct: expressed in transfected cells
Assay: Measurement of orexin type 2 receptor agonist activity (calcium fluorescence, Fluo-4 AM, FDSS) in CHO cells forcibly expressing human OX2 receptor
Type: cell-based
Settings: test compound 3 μM, DMSO = 0%, orexin A (human) 10 nM = 100%
Each entry below carries its reported 0X2R agonist activity (3 μM, %).
Value expressed in %; do not type the unit.

{"COMPOUND": "CCS(=O)(=O)N[C@H]1CCc2ncn(C(C)C)c(=O)c2[C@H]1Cc1cccc(-c2ccccc2)c1 (racemic) [Example 80]", "PARAMETER_MEASURED": "0X2R agonist activity (3 μM, %)", "READOUT_UNITS": "%", "REPORTED_MEASUREMENT": 93}
{"COMPOUND": "CC(C)n1cnc2c(c1=O)[C@@H](Cc1ccccc1Oc1ccccc1)[C@@H](NS(C)(=O)=O)CC2 (racemic) [Example 133]", "PARAMETER_MEASURED": "0X2R agonist activity (3 μM, %)", "READOUT_UNITS": "%", "REPORTED_MEASUREMENT": 72}

Enquiry: Note 0X2R agonist activity (3 μM, %) for the compound shown: CCn1ccc2c(c1=O)[C@@H](Cc1cccc(-c3ccccc3)c1F)[C@@H](NS(C)(=O)=O)CC2 (racemic) [Example 87]
Return: 97

Enquiry: Quick one: give measured 0X2R agonist activity (3 μM, %) for Cc1ccc2n(c1=O)C(Cc1cccc(-c3cccc(F)c3)c1)C(NC(=O)[C@@H]1CCCO1)CC2 (stereo in doubt) [Example 44]
Return: 96

Enquiry: Give reported 0X2R agonist activity (3 μM, %) value for CCS(=O)(=O)NC1CCc2ccc(C)c(=O)n2C1Cc1cccc(-c2ccccc2)c1 (racemic) [Example 11]
Return: 106

Enquiry: Quote 0X2R agonist activity (3 μM, %) reported for Cc1ccc2n(c1=O)C(Cc1ccc(-c3ccccc3)cc1)C(NS(C)(=O)=O)CC2 (racemic) [Example 214] please.
Return: 52

Enquiry: // fetch 0X2R agonist activity (3 μM, %) given entry CC(C)(O)c1ccc2n(c1=O)[C@@H](Cc1cccc(-c3ccccc3)c1)[C@@H](NS(C)(=O)=O)CC2 (racemic) [Example 33]
Return: 87
